- assay.protocol: Selectivity index, ratio of CC50 for human HepG2 2.2.15 cells to IC50 for HBV infected in human HepG2 2.2.15 cells
- Assay type: toxicity, cell-based
- measurement.conditions: read-out: Ratio CC50/IC50
observable: selectivity ratio

# smiles.record, measured.value
measured = [
    ("O=C(NCCn1cnc2cc(-c3noc(CCC4CCCC4)n3)ccc21)c1ccccc1F", "> 18.7"),
    ("O=C(CCn1cnc2cc(-c3noc(CCC4CCCC4)n3)ccc21)N1CCCCC1", "> 3.17"),
    ("O=C(CCn1cnc2cc(-c3noc(CCC4CCCC4)n3)ccc21)N1CCCC1", "> 3.69"),
    ("O=C(NCCn1cnc2cc(-c3noc(CCC4CCCC4)n3)ccc21)c1ccc(F)cc1", "> 15"),
    ("O=C(NCCn1cnc2cc(-c3noc(CCC4CCCC4)n3)ccc21)c1cccc(Br)c1", "> 6.02"),
    ("COc1ccccc1C(=O)NCCn1cnc2cc(-c3noc(CCC4CCCC4)n3)ccc21", "> 12.9"),
    ("O=C(NCCn1cnc2cc(-c3noc(CCC4CCCC4)n3)ccc21)c1ccccc1Br", "> 12.4"),
    ("O=C(NCCn1cnc2cc(-c3noc(CCC4CCCC4)n3)ccc21)c1ccccc1C(F)(F)F", "> 5.14"),
    ("COc1ccc(C(=O)NCCn2cnc3cc(-c4noc(CCC5CCCC5)n4)ccc32)cc1", "> 7.58"),
    ("Cc1ccc(C(=O)NCCn2cnc3cc(-c4noc(CCC5CCCC5)n4)ccc32)cc1", "> 13.1"),
    ("Nc1ccn([C@@H]2CS[C@H](CO)O2)c(=O)n1", "> 1000"),
    ("COc1cccc(C(=O)NCCn2cnc3cc(-c4noc(CCC5CCCC5)n4)ccc32)c1", "> 12.5"),
    ("O=C(NCCn1cnc2cc(-c3noc(CCC4CCCC4)n3)ccc21)c1ccc(Cl)cc1", "> 10.2"),
    ("O=C(NCCn1cnc2cc(-c3noc(CCC4CCCC4)n3)ccc21)c1cccc(C(F)(F)F)c1", "> 37.7"),
    ("O=C(NCCn1cnc2cc(-c3noc(CCC4CCCC4)n3)ccc21)c1ccc(I)cc1", "> 7.6"),
    ("O=C(NCCn1cnc2cc(-c3noc(CCC4CCCC4)n3)ccc21)c1cccc(I)c1", "> 12"),
    ("O=C(NCCn1cnc2cc(-c3noc(CCC4CCCC4)n3)ccc21)c1cccc(Cl)c1", "> 23.5"),
    ("O=C(NCCn1cnc2cc(-c3noc(CCC4CCCC4)n3)ccc21)c1ccc(C(F)(F)F)cc1", "> 29"),
]
